Target: Transcriptional activator Myb (Homo sapiens) (UniProt P10242)
Sequence (P10242 whole entry, looked up): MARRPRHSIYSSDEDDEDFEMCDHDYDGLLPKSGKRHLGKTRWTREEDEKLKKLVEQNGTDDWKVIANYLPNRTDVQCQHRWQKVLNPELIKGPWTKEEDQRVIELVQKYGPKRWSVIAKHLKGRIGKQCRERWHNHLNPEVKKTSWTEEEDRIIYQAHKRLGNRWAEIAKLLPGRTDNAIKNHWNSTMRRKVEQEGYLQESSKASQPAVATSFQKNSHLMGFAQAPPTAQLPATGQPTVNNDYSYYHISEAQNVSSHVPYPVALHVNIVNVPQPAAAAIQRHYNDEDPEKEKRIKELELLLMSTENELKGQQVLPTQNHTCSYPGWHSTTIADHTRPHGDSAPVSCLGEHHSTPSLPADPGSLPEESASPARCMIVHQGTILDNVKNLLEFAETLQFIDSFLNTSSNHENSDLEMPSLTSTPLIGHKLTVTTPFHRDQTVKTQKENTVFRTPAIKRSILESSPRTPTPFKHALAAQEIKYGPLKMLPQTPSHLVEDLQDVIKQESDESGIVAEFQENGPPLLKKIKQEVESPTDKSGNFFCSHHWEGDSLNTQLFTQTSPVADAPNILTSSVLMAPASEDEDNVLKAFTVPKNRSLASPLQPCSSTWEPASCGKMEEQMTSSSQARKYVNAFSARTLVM
Test: ATG_Myb_CIS: Attagene CIS-FACTORIAL HepG2 Assay for human Myeloblastosis (Myb) Proto-Oncogene Transcription Factor (AID 2282986)
Conditions: HepG2 Attagene CIS-FACTORIAL Myb reporter transcription; actives raise or lower the signal
Active and inactive are the calls of the source. How the source made its calls: active means hit-call score of the fitted dose curve at least 0.9, where 1 is the maximum; inactive means score below 0.9.
Please state which outcome applies, choosing from yes (active), no (inactive)

For orientation, consider the following solved cases.
Enquiry: Identify the outcome logged in this assay for the compound shown: CCN(CC)C(=O)C(C)Oc1cccc2ccccc12 (stereo unspecified)
Return: no

Enquiry: I'd appreciate the recorded outcome for O=C(Nc1ccccc1-c1ccc(Cl)cc1)c1cccnc1Cl from this test.
Return: no

Enquiry: Dear colleague, could you share the recorded outcome for Nc1c(Cl)c(Cl)nc(C(=O)O)c1Cl when you have a moment?
Return: no

Enquiry: What is the recorded call for this compound in the test? CCCCOCN(C(=O)CCl)c1c(CC)cccc1CC
Return: no

Enquiry: Tell me the recorded outcome of this test for CC(C)N1C(=O)N(c2ccccc2)CSC1=NC(C)(C)C .
Return: no

Lab note: next compound to report on.
Enquiry: Please share the test call associated with CCOc1nc(F)cc2nc(S(=O)(=O)Nc3c(Cl)cccc3Cl)nn12 .
Return: yes

* * *

Assay: ATG_ISRE_CIS: Attagene CIS-FACTORIAL HepG2 Assay for human Interferon Regulatory Factor 1 (IRF1) binding to an Interferon-Stimulated Response Element (ISRE) (AID 2282948)
Conditions: HepG2 ISRE cis-reporter (Attagene), mRNA transcription readout; actives raise or lower the signal
The source made the active and inactive calls. How the source made its calls: active means hit-call score of the fitted dose curve at least 0.9, where 1 is the maximum; inactive means score below 0.9.
Could you please pick one outcome from this set? active, inactive

These recorded examples may help you get a feel for the data.
Enquiry: Please share the test call associated with CCOP(=S)(OCC)Oc1nc(Cl)n(C(C)C)n1 .
Return: inactive

Enquiry: For CO/N=C(/C1=NOCCO1)c1ccccc1Oc1ncnc(Oc2ccccc2Cl)c1F , which call appears in the assay record?
Return: active

Enquiry: Called result for Cc1nc(N(C)C)nc(OC(=O)N(C)C)c1C
Return: inactive

New cases:
Enquiry: Recorded test outcome, item COCC(C)N(C(=O)CCl)c1c(C)csc1C (stereo not given)
Return: inactive

Enquiry: What did the test return for CCNP(=S)(OC)O/C(C)=C/C(=O)OC(C)C (stereo not given) ?
Return: inactive

Enquiry: How was C=C(C)CN(CC)c1c([N+](=O)[O-])cc(C(F)(F)F)cc1[N+](=O)[O-] classified in this test?
Return: inactive

Enquiry: // outcome(item) with item = CCCCC(O)(Cn1cncn1)c1ccc(Cl)cc1Cl (stereo not given)
Return: inactive

Enquiry: Called result for CC(C)Nc1nc(Cl)nc(NC(C)C)n1
Return: inactive

Enquiry: What is the recorded call for this molecule in the test? CC1(C)CON(Cc2ccccc2Cl)C1=O
Return: inactive

Enquiry: Per the records of this test, what outcome belongs to N#CN=C1SCCN1Cc1ccc(Cl)nc1 ?
Return: inactive

* * *

Read-out: cysteine-aspartic acid protease (CASP8), CASP8 (gene 841)
Experiment: LTEA_HepaRG_CASP8: Life Technologies and Expression Analysis (LTEA) Assay for cysteine-aspartic acid protease (CASP8) using HepaRG (AID 2283480)
Settings: mRNA level, 48 h; actives raise or lower the signal
Active and inactive are the calls of the source. The calls were made as follows: active = hit-call score of the fitted dose curve at least 0.9, where 1 is the maximum; inactive = score below 0.9.
Outcome (select one): True = active, False = inactive

Enquiry: Each molecule tested received a call. Report the one for CCNP(=S)(OC)O/C(C)=C/C(=O)OC(C)C (configuration not stated) .
Return: False

Enquiry: What outcome does the record of this test show for CC(C)C1(C)N=C(c2ncccc2C(=O)O)NC1=O (configuration not stated) ?
Return: False

More entries:
Enquiry: Please share the test call associated with COCC(=O)N(c1c(C)cccc1C)C(C)C(=O)OC (configuration not stated) .
Return: False

Enquiry: Record lookup: outcome of this test for N#Cc1c(Cl)cccc1Cl ?
Return: False

Enquiry: Fill in: this test's call for CCOc1cc(C(C)(C)C)ccc1C1COC(c2c(F)cccc2F)=N1 (configuration not stated) is ___
Return: False

Enquiry: For COCC(C)N(C(=O)CCl)c1c(C)csc1C (configuration not stated) , what call appears in the results of this test?
Return: False

Enquiry: Assay outcome for CNC(=O)N(C)c1nnc(C(C)(C)C)s1 : what was it?
Return: False

Enquiry: Recorded call for Clc1nc(Cl)nc(Nc2ccccc2Cl)n1 ?
Return: False
